target: human PI3Kα protein (Homo sapiens); construct: purchased Carna Biosciences, Inc; host or cells: Baculovirus expression system; assay: PI3Kα enzyme assay (ADP-Glo kinase assay); assay type: biochemical; details: IC50 class; 3 nM PI3Kα, 50 μM PIP2, 100 μM ATP; read-out: PI3Kα Inhibitory Activity

MOLECULE: O=C(Nc1ccc2ncc(-c3cn[nH]c3)cc2n1)NC1CC[C@H](O)C1 (some centres unmarked) [Compound 0091]
IC50: < 100 nM
//
MOLECULE: O=C(Nc1ccc2ncc(-n3ccnc3)cc2n1)NC1CCCC1 [Compound 0259]
IC50: 100 to 1000 nM
//
MOLECULE: CN(C)CCCn1cc(-c2cnc3ccc(NC(=O)NC4CCCC4)nc3c2)cn1 [Compound 0210]
IC50: < 100 nM
//
MOLECULE: O=C(Nc1ccc2ncc(-c3cnn(CCCN4CCNCC4)c3)cc2n1)NC1CCCC1 [Compound 0212]
IC50: < 100 nM
//
MOLECULE: Cc1c(-c2cnn(C)c2)cnc2ccc(NC(=O)NC3CCCC3)nc12 [Compound 0237]
IC50: < 100 nM
//
MOLECULE: O=C(NCCCCc1cccc(Cl)c1)Nc1ccc2ncc(-c3cn[nH]c3)cc2n1 [Compound 0166]
IC50: 100 to 1000 nM
//
MOLECULE: CC(C)(C)OC(=O)N1CCN(CCCn2cc(-c3cnc4ccc(NC(=O)NC5CCCC5)nc4c3)cn2)CC1 [Compound 0211]
IC50: < 100 nM
//
MOLECULE: O=C(Nc1ccc2ncc(-c3cn[nH]c3)cc2n1)NC1CCC(Oc2ccccc2)C1 (centres unmarked) [Compound 0092]
IC50: < 100 nM
//
MOLECULE: C[C@H](NC(=O)Nc1ccc2ncc(-c3cn[nH]c3)cc2n1)C1CCCC1 [Compound 0199]
IC50: 100 to 1000 nM
//
MOLECULE: COc1cccc(Nc2cnc3ccc(NC(=O)NC4CCCC4)nc3c2)c1 [Compound 0029]
IC50: < 100 nM
//
MOLECULE: COCCNc1cnc2ccc(NC(=O)NC3CCCC3)nc2c1 [Compound 0010]
IC50: < 100 nM
//
MOLECULE: C[C@@H](NC(=O)Nc1ccc2ncc(-c3cnn(CCCN4CCOCC4)c3)cc2n1)C1CCCCC1 [Compound 0181]
IC50: < 100 nM
//
MOLECULE: CC(C)(C)OC(=O)N1CCN(c2cnc3ccc(NC(=O)NC4CCCC4)nc3c2)CC1 [Compound 0012]
IC50: 100 to 1000 nM
//
MOLECULE: O=C1CN(c2cnc3ccc(NC(=O)NC4CCCC4)nc3c2)CCN1 [Compound 0142]
IC50: < 100 nM

====

molecular target: human PI3Kα protein (Homo sapiens, UniProt P42336); construct: purchased Carna Biosciences, Inc; host or cells: Baculovirus expression system; assay: PI3Kα enzyme assay (ADP-Glo kinase assay); type: biochemical; details: IC50 class; 3 nM PI3Kα, 50 μM PIP2, 100 μM ATP; read-out: PI3Kα Inhibitory Activity
Sequence (P42336 whole entry): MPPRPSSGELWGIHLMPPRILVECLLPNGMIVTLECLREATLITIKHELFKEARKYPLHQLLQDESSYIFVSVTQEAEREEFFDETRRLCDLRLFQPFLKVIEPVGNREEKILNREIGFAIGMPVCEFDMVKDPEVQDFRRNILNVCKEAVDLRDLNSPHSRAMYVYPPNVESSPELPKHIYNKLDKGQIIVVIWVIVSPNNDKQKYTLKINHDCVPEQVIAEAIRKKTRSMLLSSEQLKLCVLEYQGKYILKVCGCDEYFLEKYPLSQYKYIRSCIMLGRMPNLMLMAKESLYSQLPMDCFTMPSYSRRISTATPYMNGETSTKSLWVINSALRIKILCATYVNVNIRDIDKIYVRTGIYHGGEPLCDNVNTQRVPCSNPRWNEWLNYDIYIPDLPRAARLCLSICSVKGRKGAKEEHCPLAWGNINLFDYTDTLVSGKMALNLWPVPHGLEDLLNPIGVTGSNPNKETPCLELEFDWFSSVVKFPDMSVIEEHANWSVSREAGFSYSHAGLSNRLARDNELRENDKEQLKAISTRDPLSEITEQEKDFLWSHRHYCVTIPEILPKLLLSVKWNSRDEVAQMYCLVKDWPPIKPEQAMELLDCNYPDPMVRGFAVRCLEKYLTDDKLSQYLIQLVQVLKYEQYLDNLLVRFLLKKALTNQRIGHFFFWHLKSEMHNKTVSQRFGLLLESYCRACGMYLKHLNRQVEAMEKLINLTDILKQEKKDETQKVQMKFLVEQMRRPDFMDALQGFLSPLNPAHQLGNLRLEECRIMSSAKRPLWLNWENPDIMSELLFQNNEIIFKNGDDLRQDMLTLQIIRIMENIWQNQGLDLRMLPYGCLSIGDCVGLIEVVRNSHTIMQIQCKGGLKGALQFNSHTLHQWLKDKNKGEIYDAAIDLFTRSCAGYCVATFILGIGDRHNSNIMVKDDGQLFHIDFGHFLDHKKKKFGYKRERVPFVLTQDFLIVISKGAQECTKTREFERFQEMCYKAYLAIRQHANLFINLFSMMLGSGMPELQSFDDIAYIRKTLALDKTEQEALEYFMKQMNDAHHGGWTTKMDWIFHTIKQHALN
Sequence (P27986 whole entry partner): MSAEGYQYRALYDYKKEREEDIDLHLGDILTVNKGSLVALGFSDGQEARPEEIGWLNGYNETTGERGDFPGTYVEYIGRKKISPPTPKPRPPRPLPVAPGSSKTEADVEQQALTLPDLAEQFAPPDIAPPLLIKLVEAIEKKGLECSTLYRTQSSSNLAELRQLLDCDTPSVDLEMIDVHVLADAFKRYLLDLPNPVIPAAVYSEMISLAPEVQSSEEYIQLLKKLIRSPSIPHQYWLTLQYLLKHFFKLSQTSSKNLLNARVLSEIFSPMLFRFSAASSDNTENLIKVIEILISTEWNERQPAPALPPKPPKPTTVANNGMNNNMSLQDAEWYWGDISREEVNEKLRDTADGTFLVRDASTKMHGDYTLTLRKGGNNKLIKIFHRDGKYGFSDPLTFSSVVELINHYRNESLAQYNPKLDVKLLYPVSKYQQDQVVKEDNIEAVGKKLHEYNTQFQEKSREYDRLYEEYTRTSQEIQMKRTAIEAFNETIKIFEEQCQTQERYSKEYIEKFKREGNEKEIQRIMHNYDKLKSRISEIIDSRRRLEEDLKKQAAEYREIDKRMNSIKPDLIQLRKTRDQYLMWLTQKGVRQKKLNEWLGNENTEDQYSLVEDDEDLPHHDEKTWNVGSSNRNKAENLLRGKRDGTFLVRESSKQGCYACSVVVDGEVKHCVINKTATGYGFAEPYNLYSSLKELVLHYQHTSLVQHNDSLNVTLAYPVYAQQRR
pIC50: −log10 of the molar value.
ENDPOINT: pIC50

COMPOUND: Cn1cc(-c2cc3nc(NC(=O)NC4CCCC4)ccc3nc2N)cn1
TARGET_DESC: human PI3Kα protein (Homo sapiens, UniProt P42336)
ENDPOINT: pIC50
RESULT: > 7.00
//
COMPOUND: O=C(Nc1ccc2ncc(-c3cnn(CCN4CCOCC4)c3)cc2n1)NC1C[C@H]2CC[C@@H]1C2 (some centres unmarked)
TARGET_DESC: human PI3Kα protein (Homo sapiens, UniProt P42336)
ENDPOINT: pIC50
RESULT: > 7.00
//
COMPOUND: C[C@@H](CN(C)C)Cn1cc(-c2cnc3ccc(NC(=O)NC4CCCC4)nc3c2)cn1
TARGET_DESC: human PI3Kα protein (Homo sapiens, UniProt P42336)
ENDPOINT: pIC50
RESULT: > 7.00
//
COMPOUND: CC1(NC(=O)Nc2ccc3ncc(-c4cn[nH]c4)cc3n2)CCC1
TARGET_DESC: human PI3Kα protein (Homo sapiens, UniProt P42336)
ENDPOINT: pIC50
RESULT: > 7.00
//
COMPOUND: O=C(Nc1ccc2ncc(-c3cn[nH]c3)cc2n1)NC1CCCc2ccccc21 (centres unmarked)
TARGET_DESC: human PI3Kα protein (Homo sapiens, UniProt P42336)
ENDPOINT: pIC50
RESULT: 6.00 to 7.00
//
COMPOUND: O=C(Nc1ccc2ncc(-c3cnn(CCN4CCCCC4)c3)cc2n1)NC1CCCC1
TARGET_DESC: human PI3Kα protein (Homo sapiens, UniProt P42336)
ENDPOINT: pIC50
RESULT: > 7.00
//
COMPOUND: O=C(Nc1ccc2ncc(Nc3cnccn3)cc2n1)NC1CCCC1
TARGET_DESC: human PI3Kα protein (Homo sapiens, UniProt P42336)
ENDPOINT: pIC50
RESULT: > 7.00
//
COMPOUND: O=C(Nc1ccc2ncc(N3CCN(c4ccccn4)CC3)cc2n1)NC1CCCC1
TARGET_DESC: human PI3Kα protein (Homo sapiens, UniProt P42336)
ENDPOINT: pIC50
RESULT: 6.00 to 7.00
//
COMPOUND: C[C@@H](NC(=O)Nc1ccc2ncc(-c3cn[nH]c3)cc2n1)C1CCCC1
TARGET_DESC: human PI3Kα protein (Homo sapiens, UniProt P42336)
ENDPOINT: pIC50
RESULT: 6.00 to 7.00
//
COMPOUND: CO[C@H]1CCC[C@@H]1NC(=O)Nc1ccc2ncc(-c3cn[nH]c3)cc2n1
TARGET_DESC: human PI3Kα protein (Homo sapiens, UniProt P42336)
ENDPOINT: pIC50
RESULT: 6.00 to 7.00
//
COMPOUND: O=C(Nc1ccc2ncc(-c3cn[nH]c3)cc2n1)N[C@H]1CCc2ccccc21
TARGET_DESC: human PI3Kα protein (Homo sapiens, UniProt P42336)
ENDPOINT: pIC50
RESULT: 6.00 to 7.00
//
COMPOUND: CN(C)CCn1cc(-c2cnc3ccc(NC(=S)N[C@@H]4C[C@H]5CC[C@@H]4C5)nc3c2)cn1
TARGET_DESC: human PI3Kα protein (Homo sapiens, UniProt P42336)
ENDPOINT: pIC50
RESULT: 6.00 to 7.00
//
COMPOUND: CS(=O)(=O)C1CCN(CCn2cc(-c3cnc4ccc(NC(=O)NC5CCCC5)nc4c3)cn2)CC1
TARGET_DESC: human PI3Kα protein (Homo sapiens, UniProt P42336)
ENDPOINT: pIC50
RESULT: > 7.00
//
COMPOUND: COCCN(C)CCn1cc(-c2cnc3ccc(NC(=O)NC4CCCC4)nc3c2)cn1
TARGET_DESC: human PI3Kα protein (Homo sapiens, UniProt P42336)
ENDPOINT: pIC50
RESULT: > 7.00
//
COMPOUND: NC(=O)c1cnc2ccc(NC(=O)NC3CCCC3)nc2c1
TARGET_DESC: human PI3Kα protein (Homo sapiens, UniProt P42336)
ENDPOINT: pIC50
RESULT: 6.00 to 7.00
//
COMPOUND: O=C(NCc1ccncc1)Nc1ccc2ncc(-c3cn[nH]c3)cc2n1
TARGET_DESC: human PI3Kα protein (Homo sapiens, UniProt P42336)
ENDPOINT: pIC50
RESULT: 6.00 to 7.00
//
COMPOUND: COc1ccc(CCCCNC(=O)Nc2ccc3ncc(-c4cn[nH]c4)cc3n2)cc1
TARGET_DESC: human PI3Kα protein (Homo sapiens, UniProt P42336)
ENDPOINT: pIC50
RESULT: 6.00 to 7.00
//
COMPOUND: O=C(NCCCCc1ccccc1Cl)Nc1ccc2ncc(-c3cn[nH]c3)cc2n1
TARGET_DESC: human PI3Kα protein (Homo sapiens, UniProt P42336)
ENDPOINT: pIC50
RESULT: 6.00 to 7.00
//
COMPOUND: O=C(NCCc1ccccc1)Nc1ccc2ncc(-c3cn[nH]c3)cc2n1
TARGET_DESC: human PI3Kα protein (Homo sapiens, UniProt P42336)
ENDPOINT: pIC50
RESULT: 6.00 to 7.00
//
COMPOUND: O=C(Nc1ccc2ncc(-c3cccc(CO)c3)cc2n1)NC1CCCC1
TARGET_DESC: human PI3Kα protein (Homo sapiens, UniProt P42336)
ENDPOINT: pIC50
RESULT: 6.00 to 7.00
//
COMPOUND: O=C(Nc1ccc2ncc(-c3cnn(CCCN4CCCC4)c3)cc2n1)NC1CCCC1
TARGET_DESC: human PI3Kα protein (Homo sapiens, UniProt P42336)
ENDPOINT: pIC50
RESULT: > 7.00
//
COMPOUND: COCCN(C)c1cnc2ccc(NC(=O)NC3CCCC3)nc2c1
TARGET_DESC: human PI3Kα protein (Homo sapiens, UniProt P42336)
ENDPOINT: pIC50
RESULT: > 7.00
//
COMPOUND: S=C(Nc1ccc2ncc(-c3cnn(CCCN4CCNCC4)c3)cc2n1)NC1CCCC1
TARGET_DESC: human PI3Kα protein (Homo sapiens, UniProt P42336)
ENDPOINT: pIC50
RESULT: > 7.00
//
COMPOUND: O=C(Nc1ccc2ncc(C3=CCOCC3)cc2n1)NC1CCCC1
TARGET_DESC: human PI3Kα protein (Homo sapiens, UniProt P42336)
ENDPOINT: pIC50
RESULT: > 7.00
//
COMPOUND: O=C(NCCCCC1CCCCC1)Nc1ccc2ncc(-c3cnn(CCCN4CCOCC4)c3)cc2n1
TARGET_DESC: human PI3Kα protein (Homo sapiens, UniProt P42336)
ENDPOINT: pIC50
RESULT: 6.00 to 7.00
//
COMPOUND: C=Cn1cc(-c2cnc3ccc(NC(=O)NC4CCCC4)nc3c2)cn1
TARGET_DESC: human PI3Kα protein (Homo sapiens, UniProt P42336)
ENDPOINT: pIC50
RESULT: > 7.00
//
COMPOUND: Cc1noc(C)c1-c1cnc2ccc(NC(=O)NC3CCCC3)nc2c1
TARGET_DESC: human PI3Kα protein (Homo sapiens, UniProt P42336)
ENDPOINT: pIC50
RESULT: 6.00 to 7.00
//
COMPOUND: O=C(Nc1ccc2ncc(-c3cc(O)no3)cc2n1)NC1CCCC1
TARGET_DESC: human PI3Kα protein (Homo sapiens, UniProt P42336)
ENDPOINT: pIC50
RESULT: 6.00 to 7.00
//
COMPOUND: O=C(NCCn1cnc2ccccc21)Nc1ccc2ncc(-c3cn[nH]c3)cc2n1
TARGET_DESC: human PI3Kα protein (Homo sapiens, UniProt P42336)
ENDPOINT: pIC50
RESULT: 5.00 to 6.00
